target: recombinant human GITR (Cat No. 13643-H08H, Lot No. LC12JA2509, Sino Biological) (human) (UniProt Q9Y5U5); assay: SPR Biacore 8K, single-cycle kinetics, IgG in supernatant captured on Protein A, GITR as analyte
Assignment: determine reported kon for the given binders.
// return numeric value only (unit: M⁻¹ s⁻¹, not printed)

Give its kon value. Item: anti-GITR 51B VH1/VL5 humanized antibody (human IgG1, kappa) (antibody, V domains shown) VH: QVQLVQSGAELKKPGASVKLSCKTTGYRFTGYWIEWVRQPPGKGLEWIGEILPGSGATYYSENFKGKATITADTSTNTAYMEVSSLRSGDSAIYYCARKGGYYAMDYWGQGTSVTVSS VL: EIVLTQSPATLSLSPGERATLSCTASSSVSSSYFHWYQQKPGKAPKLWIYSTSNLESGVPDRFSGSGSGTDYTLTISSLQAEDVATYYCHLYHRSPRTFGGGTKVEIKR 445000

I am curious: what kon value has been reported for anti-GITR 51B VH5/VL1 humanized antibody (human IgG1, kappa) (antibody, V domains shown) VH: QVQLVQSGAEVKKPGASVKVSCKTTGYRFTGYWIDWVRQPPGKGLEWIGEILPGSGATYYSENFKGKVTITADTSTDTAYMELSSLRSEDTAIYYCARKGGYYAMDYWGQGTLVTVSS VL: QIVLTQSPAIMSASLGERVTMSCTASSSVSSSYFHWYQQKPGSAPKLWIYSTSNLASGVPDRFSGSGSGTDYTLTVSSLQAEDVATYYCHLYHRSPRTFGGGTTVDIKR ? 382000

Quick one: kon for anti-GITR 51B VH5/VL5 humanized antibody (human IgG1, kappa) (antibody, V domains shown) VH: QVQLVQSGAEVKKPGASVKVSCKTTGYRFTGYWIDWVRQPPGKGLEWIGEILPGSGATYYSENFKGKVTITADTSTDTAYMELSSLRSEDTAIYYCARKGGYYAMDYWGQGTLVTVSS VL: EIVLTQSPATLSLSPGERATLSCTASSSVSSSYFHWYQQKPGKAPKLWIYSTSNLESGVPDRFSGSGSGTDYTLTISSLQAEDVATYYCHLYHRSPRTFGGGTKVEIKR ? 294000
